# credit: patent US20230303994

TARGET_OR_TEST_SYSTEM: pre-pro-human insulin
MEASURED_PROPERTY: Activity PPI cleavage

trypsin variant SEQ ID NO: 99 (protein) IVGGYTCAANSIPYQVSLNSGSHRCGGSLINSQWVVSAAHCYKSRIQVRLGEHNIHVLEGNEQFINAAKIITHPNFNPNTLDNDIMLIKLSSPATLNSNVATVSLPTSCAAAGTECLISGWGNTSSSGSSYPSLLQCLKAPVLSDSSCKSSYPGQITGNMICVGFLEGGADACQGDSGGPVVCNGQLQGIVSSGYGCAQKNKPGVYTKVCNYVNWIQQTIAAN ... yes
trypsin variant SEQ ID NO: 24 (protein) IVGGYTCAANSIPYQVSLNSGSHRCGGSLINSQWVVSAAHCYKSRIQVRLGEHNIDVLEGNEQFINAAKIITHPNFNGNTLDNDIMLIKLSSPATLNSRVATVSLPRSCAAAGTECLISGWGNTKSSGSSYPSLLQCLKAPVLSDSSCKSSYPGQITGNMICVGFLEGGYDACQGDSGGPVVCNGQLQGIVSSGYGCAQKNKPGVYTKVCNYVNWIQQTIAAN ... yes
trypsin variant SEQ ID NO: 120 (protein) IVGGYTCAANSIPYQVSLNSGSHRCGGSLINSQWVVSAAHCYKSRIQVRLGEHNIDVLEGNEQFINAAKIITHPNFNGNTLDNDIMLIKLSSPATLNSRVATVSLPRSCAAAGTECLISGWGNTPSSGSSYPSLLQCLKAPVLSDSSCKSSYPGQITGNMICVGFLEGGKDACQGDSGGPVVCNGQLQGIVSSGYGCAQKNKPGVYTKVCNYVNWIQQTIAAN ... yes
